Tested on: NCI-H460 lung
assay-text: NCI tumour cell line growth inhibition, 48 h
parameter-measured: TGI

Requested field: TGI. Item: `CC(C)NC(=O)N(Nc1ccccc1)C(C)(C)C`
> 100 µM

Requested field: TGI. Item: `O=C1C=CC(=Nc2cc(Br)c(O)c(Br)c2)C=C1`
84.9 µM

Requested field: TGI. Item: `CCN(CC)CCCNCc1cc(-c2ccccc2)nc2ccccc12`
> 100 µM

Requested field: TGI. Item: `O=c1c2cc3c(=O)n4c(cc(-c5ccccc5)c5cc(Cl)ccc54)nc3cc2nc2cc(-c3ccccc3)c3cc(Cl)ccc3n12`
> 100 µM

Requested field: TGI. Item: Nc1nc2c(ncn2C2C=CC(CO)C2)c(=O)[nH]1 (centres undefined)
> 100 µM

Requested field: TGI. Item: CC[C@@]1(C)CCC2c3ccc(O)cc3CC[C@H]2C1C (some centres undefined)
40.6 µM

Requested field: TGI. Item: COc1cccc(NC(=O)c2sc3nc(C)c(C(O)c4ccccc4)cc3c2N)c1 (centres undefined)
3.21 µM

Requested field: TGI. Item: COC(=O)c1cc(C(=CCC[C@H]2CC[C@@]3(C)C(CCC4C3CC[C@@]3(C)C4CC[C@@H]3C(C)CCCC(C)C)C2)c2cc(Cl)c(O)c(C(=O)OC)c2)cc(Cl)c1O (some centres undefined)
> 10 µM

Requested field: TGI. Item: `COCc1cc(C(=O)Nc2cc([C@H]3CC[C@@H](OC(=O)NC(C)C)C3)[nH]n2)n(C)n1`
> 100 µM
